# System: P388 leukemia ip, CD2F1 mice, survival T/C
# method_notes: NCI In Vivo Anticancer Drug Screen. Data for tumor model P388 Leukemia (intraperitoneal) in CD2F1 (CDF1) mice
# test_context: endpoint: median survival time; dose: 12.5 mg/kg/injection; schedule: Q01DX005 (ip); vehicle: Klucel (hydroxypropylcellulose) (HPC); higher = longer survival
# Method: The antitumor activity of compounds was measured in mice bearing transplantable tumors. Survival or tumor size were measured and the results are expressed as the measurement made in the treated group (T) divided by the measurement made in the vehicle treated control group (C). The tumor model used in this assay is P388 Leukemia (intraperitoneal) in CD2F1 (CDF1) mice
Toxic doses and inconclusive results are not listed.
T/C overview
quantity: T/C

>>> test_value("CC1OC(O[C@@H]2OC=C(C=O)[C@@]3(O)CC[C@H](C)[C@@H]23)C(O)C(O)C1O (some centres not stated)")
"116 % of control"
>>> test_value("COc1ccc2nc(Cl)c(CBr)c(CBr)c2c1")
"98 % of control"
>>> test_value("CCCCCCC(O)CCCCCCCCCCC(N)=O (configuration not stated)")
"96 % of control"
>>> test_value("C[CH2][Ge]([CH2]C)[O]C(=O)C(=O)[O][Ge]([CH2]C)[CH2]C")
"100 % of control"
>>> test_value("Nc1nsc2nc3ccccc3cc12")
"100 % of control"
>>> test_value("CCN(CC)CCNC(=O)c1cc(Cl)c(C(=O)NO)cc1OC")
"95 % of control"
>>> test_value("Nc1ncc2[nH]c(N)nc2n1")
"106 % of control"
>>> test_value("CCOC(=O)NN(C(=O)OCC)C(C(C)=O)C(C)=NCCN=C(C)C(C(C)=O)N(NC(=O)OCC)C(=O)OCC.[Cu] (configuration not stated)")
"100 % of control"
>>> test_value("CC1(C)CC(N2CCOCC2)=CC(=NCc2ccccc2)N1")
"107 % of control"
>>> test_value("CC(C)(CNC(=O)C12CC3CC(CC(C3)C1)C2)NC(=O)C12CC3CC(CC(C3)C1)C2")
"98 % of control"
>>> test_value("C[CH2][Sn]([CH2]C)([O]C(=O)c1ccc2c(c1)OC(C)(C)O2)[O]C(=O)c1ccc2c(c1)OC(C)(C)O2")
"116 % of control"
>>> test_value("COc1ccc(-c2nn3c(=O)c(Cc4ccccc4)c(O)nc3nc2-c2ccccc2)cc1")
"93 % of control"
>>> test_value("Cn1c2ncccc2c(=O)c2c(O)cc3c(c21)C=CC(C)(C)O3")
"100 % of control"
>>> test_value("O=C(NC(=S)Nc1c(Cl)cccc1Cl)c1cccc(Cl)c1")
"106 % of control"
>>> test_value("CC1(C)Cc2[nH]c3ccccc3c(=O)c2-c2nc3ccccc3c(=O)n21")
"98 % of control"
>>> test_value("OC1C(O)C(O)C(O)C(O)C1O.[Cu+2].[Cu] (configuration not stated)")
"94 % of control"
>>> test_value("COc1ccc2c(C)cc(N/N=C(\\C)c3cn(C)n(-c4ccccc4)c3=O)nc2c1")
"98 % of control"

====

T/C overview
# Test system: P388 leukemia ip, CD2F1 mice, survival T/C
# method_notes: NCI In Vivo Anticancer Drug Screen. Data for tumor model P388 Leukemia (intraperitoneal) in CD2F1 (CDF1) mice
# test_context: endpoint: median survival time; dose: 25.0 mg/kg/injection; schedule: Q01DX005 (ip); vehicle: Klucel (hydroxypropylcellulose) (HPC); higher = longer survival
# Procedure: The antitumor activity of compounds was measured in mice bearing transplantable tumors. Survival or tumor size were measured and the results are expressed as the measurement made in the treated group (T) divided by the measurement made in the vehicle treated control group (C). The tumor model used in this assay is P388 Leukemia (intraperitoneal) in CD2F1 (CDF1) mice
Toxic doses and inconclusive results are not listed.
quantity: T/C

>>> test_value("CN(N=O)C(=O)Nc1cc(=O)[nH]c(SCc2ccccc2)n1")
"114 % of control"
>>> test_value("CC1(C)CC2C1(O)CCC1(C)C(O)C=CC21CO (stereo not drawn)")
"93 % of control"
>>> test_value("CCNC(=O)/C=C(C)/C=C/C=C(C)/C=C/c1c(C)cc(OC)c(C)c1C")
"86 % of control"

====

# System: P388 leukemia ip, CD2F1 mice, survival T/C
# method_notes: NCI In Vivo Anticancer Drug Screen. Data for tumor model P388 Leukemia (intraperitoneal) in CD2F1 (CDF1) mice
# test_context: endpoint: median survival time; dose: 200.0 mg/kg/injection; schedule: Q01DX009 (ip); vehicle: Klucel (hydroxypropylcellulose) (HPC); higher = longer survival
Inconclusive results and toxic doses are left out.
quantity: T/C

>>> test_value("O=c1[nH]c2cc([N+](=O)[O-])ccc2o1")
"105 % of control"
>>> test_value("Cc1s/c(=N/N=C2\\C(=O)C=Cc3ccccc32)n(O)c1C")
"111 % of control"
>>> test_value("CP1(=S)CCC2=C1CCc1cc(O)ccc12 (configuration not stated)")
"101 % of control"
>>> test_value("COc1cc2oc3c(c(=O)c2c(O)c1/C=C/C(C)C)C(C=C(C)C)Oc1cc(O)ccc1-3 (configuration not stated)")
"114 % of control"
>>> test_value("CCC1C(C#N)C(=O)NC(=O)C1C#N (configuration not stated)")
"95 % of control"
>>> test_value("Cc1cc(C2(c3cc(C)c(O)c(C)c3)c3ccccc3-c3ccccc32)cc(C)c1O")
"96 % of control"
>>> test_value("Cc1ccc(N=Cc2ccc(C=Nc3ccc(C)cc3C)cc2)c(C)c1")
"97 % of control"
>>> test_value("O/N=C(/CN1CCOCC1)c1ccccc1")
"102 % of control"
>>> test_value("CCOC(=O)N1CCN(CC(O)Cn2c(=O)c3c(nc(N4CCN(C(=O)OCC)CC4)n3C)n(C)c2=O)CC1 (configuration not stated)")
"99 % of control"
>>> test_value("Cn1c(=O)c2cn[nH]c2n(C)c1=O")
"96 % of control"
>>> test_value("Oc1ccccc1N=Cc1cccs1")
"124 % of control"
>>> test_value("CC12CC3CC(C)(C1)CC(C/C=N/NC(N)=O)(C3)C2")
"99 % of control"

====

# Tested on: P388 leukemia ip, CD2F1 mice, survival T/C
# method_notes: NCI In Vivo Anticancer Drug Screen. Data for tumor model P388 Leukemia (intraperitoneal) in CD2F1 (CDF1) mice
# test_context: endpoint: median survival time; dose: 400.0 mg/kg/injection; schedule: Q04DX003 (ip); vehicle: saline; higher = longer survival
Toxic doses and inconclusive results are not listed.
quantity: T/C

>>> test_value("COc1ccc(C(=O)NC(C(N)=O)C(N)=O)cc1")
"97 % of control"
>>> test_value("COC(=O)Nc1nc2ccc(C(=O)OC)cc2[nH]1")
"103 % of control"
>>> test_value("CCCCCCC[CH2][Sn]([Cl])([CH2]CCCCCCC)[O][Sn]([CH2]CCCCCCC)([CH2]CCCCCCC)[O]C")
"98 % of control"
>>> test_value("COSc1cccc(C(F)(F)F)c1")
"97 % of control"
>>> test_value("Oc1ccccc1-c1cc(-c2ccccc2)nc(NCCCCCCCCNc2nc(-c3ccccc3)cc(-c3ccccc3O)n2)n1")
"88 % of control"
>>> test_value("COc1ccc(C2CC(=O)N(c3ncccn3)C(=O)C2)cc1")
"102 % of control"
>>> test_value("CCOC(=O)NC(NC(=O)OCC)c1cccc(F)c1")
"93 % of control"
>>> test_value("CCOC(=O)CC1(C)C(=O)CCCC1=O")
"100 % of control"
>>> test_value("OCC(F)(F)C(F)(F)C(F)(F)CO")
"100 % of control"
>>> test_value("NC/C(=N\\Nc1ccc([N+](=O)[O-])cc1[N+](=O)[O-])c1ccccc1")
"95 % of control"

====

T/C overview
# Test system: P388 leukemia ip, CD2F1 mice, survival T/C
# method_notes: NCI In Vivo Anticancer Drug Screen. Data for tumor model P388 Leukemia (intraperitoneal) in CD2F1 (CDF1) mice
# test_context: endpoint: median survival time; dose: 100.0 mg/kg/injection; schedule: Q01DX005 (ip); vehicle: saline with Tween-80; higher = longer survival
# Protocol: The antitumor activity of compounds was measured in mice bearing transplantable tumors. Survival or tumor size were measured and the results are expressed as the measurement made in the treated group (T) divided by the measurement made in the vehicle treated control group (C). The tumor model used in this assay is P388 Leukemia (intraperitoneal) in CD2F1 (CDF1) mice
Inconclusive results and toxic doses are left out.
quantity: T/C

>>> test_value("CSC(C(=O)O)c1cc(-c2c(Cl)cccc2Cl)no1 (stereo not drawn)")
"105 % of control"
>>> test_value("CC(=O)c1cc(-c2ccc3ccccc3c2)nc2ccccc12")
"94 % of control"
>>> test_value("COc1cccc(OC)c1OCc1ccc(OCc2ccccc2)cc1")
"95 % of control"
>>> test_value("CC(C)(C=C(c1ccccc1)c1ccccc1)C=C(c1ccccc1)c1ccccc1")
"98 % of control"
>>> test_value("O=S(=O)(C1CC1c1ccccc1)C1CC1c1ccc(F)cc1 (stereo not drawn)")
"95 % of control"
>>> test_value("N=C(N)c1ccc(N=Nc2c(O)ccc3c2[nH]c2ccccc23)cc1")
"98 % of control"
>>> test_value("O=C1CN(c2ccc(Cl)cc2)C(=O)CN1/N=C/c1ccc(O)c(O)c1")
"93 % of control"
>>> test_value("CC(=O)OC1COC(Nc2[nH]c(=O)n(C)c(=O)c2C(=O)CCl)C(OC(C)=O)C1OC(C)=O (stereo not drawn)")
"96 % of control"
>>> test_value("O=c1c2ccccc2[nH]c2cc([N+](=O)[O-])cc([N+](=O)[O-])c12")
"90 % of control"
>>> test_value("O=C(O)Cc1csc(=S)n1-c1ccccc1")
"102 % of control"
>>> test_value("CC1CCC2(C)OC1OC2CN (stereo not drawn)")
"99 % of control"
>>> test_value("NCCCC(C(=O)O)N(C(=O)OCc1ccccc1)C(=O)OCc1ccccc1 (stereo not drawn)")
"101 % of control"
>>> test_value("O=C1c2cccc3c([N+](=O)[O-])ccc(c23)C(=O)N1CCCN1CCOCC1")
"116 % of control"
>>> test_value("CC(C)(O)C#C[Si](C)(C)C")
"103 % of control"
>>> test_value("COC1=CCC2=C(CC[C@H]3[C@H]2CCP3C)C1 (stereo partly drawn)")
"111 % of control"
>>> test_value("Nc1nc(N)nc(-c2cc(Br)c(N)c(Br)c2)n1")
"101 % of control"
>>> test_value("CCCCN(CCCC)CC(O)c1ccc(OCc2ccccc2)c2ccccc12 (stereo not drawn)")
"102 % of control"
>>> test_value("Cc1cc2c(=O)[nH]c(N)nc2nc1C")
"96 % of control"
>>> test_value("CN(C)CC1CCc2c(ccc3ccccc23)C1=O (stereo not drawn)")
"104 % of control"
>>> test_value("Nc1nc(N)c2cnnn2n1")
"102 % of control"
>>> test_value("CC(C)N1NC1(C)C (stereo not drawn)")
"107 % of control"
>>> test_value("CN1CCC(O)CC1=O (stereo not drawn)")
"98 % of control"
>>> test_value("CCN(CC)c1ccc(/C=N/Nc2cc(C)nc3ccc(C4CCCCC4)cc23)cc1")
"100 % of control"
>>> test_value("O=C1Nc2ccccc2C12Nc1ccccc1S2 (stereo not drawn)")
"101 % of control"
>>> test_value("CN(CCN1C(=O)c2cccc3cc([N+](=O)[O-])cc(c23)C1=O)CCN1C(=O)c2cccc3cc([N+](=O)[O-])cc(c23)C1=O")
"97 % of control"
>>> test_value("COCCc1nnnn1C")
"98 % of control"
>>> test_value("CCN(CC)CCOC(C)(C)C#CC(C)(C)O")
"99 % of control"
>>> test_value("CC(=O)Nc1ccc(S(=O)(=O)N/N=C\\c2cc([N+](=O)[O-])ccc2O)cc1")
"101 % of control"
>>> test_value("O=c1cc(-c2ccc(OCc3ccccc3)cc2)oc2ccccc12")
"87 % of control"
>>> test_value("CC(=O)Nc1cccc(/C(C)=N/NC(N)=O)c1")
"91 % of control"
>>> test_value("O=[N+]([O-])c1ccc(C=C2C=CN(CCO)C=C2)cc1")
"108 % of control"
>>> test_value("CCOc1ccccc1N=Nc1c(-c2ccccc2)nn(C(=S)S)c1-c1ccccc1")
"109 % of control"
>>> test_value("Brc1ncc2[nH]cnc2n1")
"100 % of control"
>>> test_value("O=[N+]([O-])C(Cc1ccccc1)Cc1ccccc1")
"103 % of control"
>>> test_value("c1ccc2c(OCC3CO3)c3ccccc3nc2c1 (stereo not drawn)")
"108 % of control"
>>> test_value("CC(=O)N1C=Cc2ccccc2C1(Br)C1(Br)c2ccccc2C=CN1C(C)=O (stereo not drawn)")
"89 % of control"
>>> test_value("CN(C)c1cccc(NC(=O)CC#N)c1")
"93 % of control"
>>> test_value("O=C(Nc1ccc(CSc2ccc(Cl)cc2)o1)N1CCOCC1")
"99 % of control"
>>> test_value("O=c1[nH]c(=O)n(C2OC(CO)C(O)C2O)c(NNc2ccccc2)c1NNc1ccccc1 (stereo not drawn)")
"111 % of control"
>>> test_value("O=C(O)CCC(=O)NC1C(NNC(=O)c2cccnc2)OC(CO)C(O)C1O (stereo not drawn)")
"95 % of control"
>>> test_value("O=c1c2ccccc2c(=O)c2c1ccc1[nH]c3c(ccc4c(=O)c5ccccc5c(=O)c43)[nH]c12")
"107 % of control"
>>> test_value("CC(=O)NC1CCC(C2CCCCC2)CC1C1CCCCC1 (stereo not drawn)")
"98 % of control"
>>> test_value("CC(C)(C)C1CS1 (stereo not drawn)")
"107 % of control"
>>> test_value("O=C1NC(=O)C2(Cc3cccc4cccc2c34)N1 (stereo not drawn)")
"100 % of control"
>>> test_value("CCC1=C(C(C)OCCO)C(=O)c2ccccc2C1=O (stereo not drawn)")
"100 % of control"
>>> test_value("CCn1c2ccc([N+](=O)[O-])cc2c2c([N+](=O)[O-])c(NC(C)=O)ccc21")
"95 % of control"
>>> test_value("Nc1nc2ncc([N+](=O)[O-])cc2c(=O)[nH]1")
"100 % of control"
>>> test_value("O=S1(=O)CCC(N(/N=C/c2ccco2)c2ccccc2)C1 (stereo not drawn)")
"101 % of control"
